# targetEntity: T1, Human PPARα-LBD (amino acids 200–468), amino-terminal His-tagged (human, UniProt Q07869 200-468)
# T1 construct: Form used in the FRET assays; detected through the His tag with a Tb cryptate anti-6×His antibody; Routine preparations hold intrinsic fatty acids; also called hPPARα-LBD; NR1C1; source: Rosetta (DE3) pLysS cells, pET28a, purified (TALON, HiTrap Q, Superdex 75); not shown: His tag, N-terminal, kept
# T1 sequence (looked up): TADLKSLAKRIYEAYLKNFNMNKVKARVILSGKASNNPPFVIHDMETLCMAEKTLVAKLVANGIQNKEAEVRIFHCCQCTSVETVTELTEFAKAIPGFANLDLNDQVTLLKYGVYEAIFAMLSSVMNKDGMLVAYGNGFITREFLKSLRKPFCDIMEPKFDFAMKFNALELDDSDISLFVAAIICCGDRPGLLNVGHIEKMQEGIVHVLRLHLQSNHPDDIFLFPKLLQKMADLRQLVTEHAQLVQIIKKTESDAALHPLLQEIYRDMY
# procedureText: FRET or BRET; single-emission TR-FRET as a1, with the agonist titrated (pemafibrate for PPARα-LBD, seladelpar for PPARδ-LBD, pioglitazone for PPARγ-LBD); signal ratios normalised to 1% DMSO
# conditionLabel: both partners purified
No end group written: not given here. *: point of attachment. Biotin = O=C1N[C@H]2[C@H](CS[C@H]2CCCCC(=O)*)N1
measureName: EC50 of pemafibrate (the ligand is titrated) for recruitment of the peptide (nM)

[[record]]
binder = "Biotin-CPSSHSSLTERHKILHRLLQEGSPS (also called ULight-SRC1; SRC-1 M2; source: synthetic peptide (GenScript)) [SRC1 coactivator peptide, biotin-labeled (AAs 676–700)]"
recordedresult = 87.8

[[record]]
binder = "Biotin-SGNLVPDAASKHKQLSELLRGGSGS (also called ULight-CBP; source: synthetic peptide (GenScript)) [CBP coactivator peptide, biotin-labeled (AAs 56–80)]"
recordedresult = 60.9

[[record]]
binder = "Biotin-PVSSMAGNTKNHPMLMNLLKDNPAQ (thyroid hormone receptor-associated protein 220 (TRAP220), human, AAs 631–655, LXXLL motif LMNLL; also called ULight-TRAP220; ULight-TRAP; source: synthetic peptide (GenScript)) [TRAP220 coactivator peptide, biotin-labeled (AAs 631–655)]"
recordedresult = 130

[[record]]
binder = "Biotin-EAEEPSLLKKLLLAPANTQ (also called ULight-PGC1α; source: synthetic peptide (GenScript)) [PGC1α coactivator peptide, biotin-labeled (AAs 137–155)]"
recordedresult = 82

